The measured values listed here are drawn from ChEMBL document CHEMBL4513216.

- Tested on: Plasmodium berghei
- method: Screen against P. berghei liver stage (PbLuc), transformed with Luciferase, at 10uM
- Assay type: functional, HepG2
- applied_conditions: tested at 10 uM
Out of some 69,000 compounds screened, about 8,600 (12%) showed an effect of 50% or more. Shown is part of a subset that was picked to be rich in strong results.
Recorded INHIBITION, one value per entry.
The figure you give is taken to be in %; do not add the unit.

The following compounds have reported results that may help.
1. CCN1C(=O)CCC12CCCN(Cc1nccs1)C2 (configuration not stated) :: 46.2
2. CN1C(=O)CCC12CCCN(Cc1nccs1)C2 (configuration not stated) :: 59
3. CS(=O)(=O)N1CCCC12CCN(Cc1nccs1)CC2 :: 28.2
4. CC(C)CS(=O)(=O)N1C[C@@H]2C[C@H](C(=O)Nc3cccnc3)[C@H](C1)O2 :: -10.3
5. Cc1cccc2c(CCNC(=O)[C@H](N)c3ccccc3)c[nH]c12 :: 61.1
6. COCCN1C(=O)CCC12CCCN(Cc1nccs1)CC2 (configuration not stated) :: 48.6
7. CCN1C(=O)CCC12CCCN(Cc1nccs1)CC2 (configuration not stated) :: 59.7
8. Cc1ccc(CN2CCCC3(CCCN3S(C)(=O)=O)C2)s1 (configuration not stated) :: 63.8

Exercise: Quick one: give measured INHIBITION for Cc1cccc2c(CCNC(=O)NCCC[S+](C)[O-])c[nH]c12 (configuration not stated)
Key: 51

* * *

- System: Plasmodium berghei
- method: Screen against P. berghei liver stage (PbLuc), transformed with Luciferase, at 10uM
- Format: functional, HepG2
- applied_conditions: tested at 10 uM
The campaign covered roughly 69,000 compounds. About 8,600 (12%) showed an effect of 50% or more. This is one part of a sample in which strong results are shown more often than they occur.
assay_endpoint: INHIBITION (%)
The figure you give is taken to be in %; do not add the unit.

The following compounds have reported results that may help.
1) CN(C)CCN(Cc1ccsc1)C(=O)C1=NNC(=O)CC1 :: 49
2) CN1CCC(N(CCc2ccccc2)C(=O)c2ccc(C#N)nc2)CC1 :: 12.5
3) COC(=O)CCC(=O)NCc1cccnc1N1CCc2ccccc2C1 :: -13.1
4) C[C@@H]1CN(Cc2cccc(F)c2)C[C@]12CCN(Cc1cccnc1)C2=O :: -13.4
5) Cc1ccc(CN2C[C@@H]3COC[C@H](NS(C)(=O)=O)[C@@H]3C2)s1 :: -1.36

Exercise: Quick one: give measured INHIBITION for `Cc1ccc(S(=O)(=O)c2ncccc2CN2CCOCC2)cc1`
Key: 37.8

Exercise: Quick one: give measured INHIBITION for CC(C)n1cc(C(=O)NCC(CO)Cc2cccs2)cn1 (stereo not drawn)
Key: 5.78

* * *

- Tested on: Plasmodium berghei
- method: Screen against P. berghei liver stage (PbLuc), transformed with Luciferase, at 10uM
- Type: functional, HepG2
- applied_conditions: tested at 10 uM
In all, about 69,000 compounds went through this assay and about 8,600 (12%) showed an effect of 50% or more. Only a selection was taken, and strong results are over-represented in it overall.
Rule: INHIBITION of 10% or more gives 1.0; anything lower gives 0.0.

1. c1cncc(NCCNC2CSCCSC2)c1 :: 1.0
2. CC1CCCN1Cc1cccc(C(=O)Nc2ccc3[nH]c(=O)oc3c2)c1 (stereo unspecified) :: 1.0
3. COc1ccc(OCCc2cc(C3CNCCO3)nn2C)cc1 (stereo unspecified) :: 0.0
4. CC(NC1CCSCC1)c1ccccc1-n1cccn1 (stereo unspecified) :: 0.0
5. CN1CCN(C(=O)N2C[C@@H]3CC[C@H]2CN(Cc2ccccc2)C3)CC1 :: 1.0
6. O=C(CCOc1cccc(F)c1)N1CCCC(n2cccn2)C1 (stereo unspecified) :: 0.0
7. Cn1nc(C2CNCCO2)cc1CCOc1ccc(Cl)cc1 (stereo unspecified) :: 1.0
8. COc1cc(NCc2c(C)noc2C)c(C(=O)N(C)C)cc1OC :: 0.0
9. CNCc1ccc([C@@H]2CN(C)C[C@H]2C(N)=O)cc1 :: 1.0
10. c1cncc(NCCNC2CCSC2)c1 (stereo unspecified) :: 1.0

Exercise: # bool: INHIBITION of O=C(NCc1ccco1)c1cccc(CN2CCCC2CO)c1 (stereo unspecified) >= 10%
Key: 0.0

Exercise: # bool: INHIBITION of `CN(CCc1cccs1)CCc1nccs1` >= 10%
Key: 0.0

Exercise: # bool: INHIBITION of `c1cncc(NCCNC2CCSCC2)c1` >= 10%
Key: 0.0

Exercise: # bool: INHIBITION of `O=C(N1CCOCC1)N1C[C@H]2CN(Cc3nccs3)C[C@H]2C1` >= 10%
Key: 1.0

Exercise: # bool: INHIBITION of CCc1nc(CNC(C)c2cccc(N3CCCC3=O)c2)cs1 (stereo unspecified) >= 10%
Key: 1.0

Exercise: # bool: INHIBITION of `CO[C@@H]1CCN(Cc2ccccn2)[C@@H]2CN(Cc3ccco3)C[C@@H]21` >= 10%
Key: 1.0

Exercise: # bool: INHIBITION of `CCOC(=O)CCNC(=O)c1nc(OCC)ccc1Cl` >= 10%
Key: 0.0

* * *

Recorded INHIBITION, one value per entry.
- Test system: Plasmodium berghei
- method: Screen against P. berghei liver stage (PbLuc), transformed with Luciferase, at 10uM
- Assay type: functional, HepG2
- applied_conditions: tested at 10 uM
In all, about 69,000 compounds went through this assay and about 8,600 (12%) showed an effect of 50% or more. The list comes from a sample in which strong results are over-represented; it also holds close analogues and randomly drawn compounds.
The figure you give is taken to be in %; do not add the unit.

The following compounds have reported results that may help.
1. Cc1cc(C)n(CC2CCCN2C(=O)CCNc2ncccn2)n1 (configuration not stated) :: -9.4
2. Cc1nc(C)n(CC2CN(CCCOc3ccc(F)cc3)CCO2)n1 (configuration not stated) :: 25.6
3. O=C1NCCCCC1NCc1csc(-c2ccc(F)cc2)n1 (configuration not stated) :: -7.17
4. CCC(CC)NC(=O)c1cccnc1N1CCCC1c1ccccn1 (configuration not stated) :: 25.3
5. Cc1cc(C(=O)N2CC[C@@H](O)[C@@H]2Cc2ccccc2)no1 :: 2.58

Exercise: Jot down INHIBITION (Plasmodium berghei) of Cc1ccc2nc(CN3CCCCC3C(=O)N3CCOCC3)cn2c1 (configuration not stated) .
Key: 20

Exercise: Jot down INHIBITION (Plasmodium berghei) of CCn1nc(C)c(CCNC(=O)C2CCCN(C(=O)COC)C2)c1C (configuration not stated) .
Key: -13.6

Exercise: Jot down INHIBITION (Plasmodium berghei) of `Cc1cc(C)cc(C(=O)Nc2cn[nH]c2)c1` .
Key: 7.77

Exercise: Jot down INHIBITION (Plasmodium berghei) of CC(O)(CNC(=O)c1cccnc1-n1cccn1)c1ccsc1 (configuration not stated) .
Key: 61.1

Exercise: Jot down INHIBITION (Plasmodium berghei) of `CCn1nc(CC(C)C)cc1C(=O)NCC(F)(F)F` .
Key: 15.4

Exercise: Jot down INHIBITION (Plasmodium berghei) of CCN(CC)CCCC(C)NC(=O)c1cccnc1-n1cccn1 (configuration not stated) .
Key: -7.13

Exercise: Jot down INHIBITION (Plasmodium berghei) of `CCC(CC)NC(=O)c1cccnc1-n1cccn1` .
Key: 55.9

* * *

- System: Plasmodium berghei
- method: Screen against P. berghei liver stage (PbLuc), transformed with Luciferase, at 10uM
- Format: functional, HepG2
- applied_conditions: tested at 10 uM
Among all 69,000 compounds or so, about 8,600 (12%) showed an effect of 50% or more. The full list was thinned out, with strong results kept by preference.
assay_endpoint: INHIBITION (%)
The figure you give is taken to be in %; do not add the unit.

The following compounds have reported results that may help.
1) CCc1ccc(S(=O)(=O)NCCOc2ccc3nnc(C)n3n2)s1 :: 31
2) COCCCNC(=O)c1nnsc1-c1ccccc1 :: -6.42
3) Cc1noc(CN(C)C(=O)c2n[nH]c(N)c2-c2ccccc2)n1 :: 1.98
4) COCC1COCCC12CCN(S(=O)(=O)c1ccccc1)CC2 (stereo unspecified) :: -27.1
5) CCC(=O)NCC(=O)NCC1CCN(c2cc(Cl)ccc2C)C1 (stereo unspecified) :: 23.73

Exercise: Quick one: give measured INHIBITION for `N#Cc1ccc(CNCCS(=O)(=O)N2CCc3ccccc32)cc1`
Key: 60.3

Exercise: Quick one: give measured INHIBITION for Cc1cc(C2CCCN2S(=O)(=O)c2cnn(C)c2)on1 (stereo unspecified)
Key: -9.8

Exercise: Quick one: give measured INHIBITION for CN(C)C1CCCN(C(=O)c2cccc(-c3ncc[nH]3)c2)CC1 (stereo unspecified)
Key: 12.8

Exercise: Quick one: give measured INHIBITION for O=C(c1cccc(-c2ncc[nH]2)c1)N1CCC(N2CCCC(O)C2)CC1 (stereo unspecified)
Key: 57.2

Exercise: Quick one: give measured INHIBITION for CN1C(=O)CC(C(=O)O)C12CCN(c1ccc3cccc(Cl)c3n1)CC2 (stereo unspecified)
Key: -0.273

Exercise: Quick one: give measured INHIBITION for `Cc1ccc(S(=O)(=O)NCCOc2ccc3nnc(C)n3n2)s1`
Key: 57.4
